- tested.target: Mitogen-activated protein kinase 3 (Homo sapiens)
- Sequence (P27361 whole entry): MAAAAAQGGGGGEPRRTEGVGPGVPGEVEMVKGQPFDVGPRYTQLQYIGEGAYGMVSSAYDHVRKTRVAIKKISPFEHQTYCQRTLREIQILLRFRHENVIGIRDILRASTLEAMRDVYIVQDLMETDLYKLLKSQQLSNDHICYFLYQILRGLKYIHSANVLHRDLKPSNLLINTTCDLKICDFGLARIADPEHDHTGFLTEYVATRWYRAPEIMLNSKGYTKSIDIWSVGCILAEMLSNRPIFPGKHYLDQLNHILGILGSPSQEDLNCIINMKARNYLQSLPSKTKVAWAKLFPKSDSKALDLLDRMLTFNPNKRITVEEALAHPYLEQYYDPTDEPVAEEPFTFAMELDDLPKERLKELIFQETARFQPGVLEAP
- assay: DRUGMATRIX: Protein Serine/Threonine Kinase, ERK1 enzyme inhibition (substrate: Myelin Basic Protein)
- Set-up: species or system Escherichia coli
- measurement.context: Not Active = under 50% inhibition at 10 µM
reported.endpoint: IC50

Some entries whose results are on file:
C[C@]12CC[C@@H]3c4ccc(O)cc4CC[C@H]3[C@@H]1C[C@@H](O)[C@@H]2O :: Not Active
CN1CCN(c2c(F)cc3c(=O)c(C(=O)O)cn(CCF)c3c2F)CC1 :: Not Active
C[C@@H]1C/C=C/C=C/C=C/C=C/[C@H](O[C@@H]2O[C@H](C)[C@@H](O)[C@H](N)[C@@H]2O)C[C@@H]2O[C@](O)(C[C@@H](O)C[C@H]3O[C@@H]3/C=C/C(=O)O1)C[C@H](O)[C@H]2C(=O)O :: Not Active
ClC(Cl)(Cl)Cl [CARBON TETRACHLORIDE] :: Not Active
CN1C[C@@H]2C[C@H]1CN2c1cc2c(cc1F)c(=O)c(C(=O)O)cn2C1CC1 :: Not Active
NNCCc1ccccc1 :: Not Active
O=C(O)CC(O)(CC(=O)O)C(=O)O :: Not Active
CCc1ccc(CCOc2ccc(CC3SC(=O)NC3=O)cc2)nc1 (stereo unspecified) :: Not Active
O=c1c(-c2ccc(O)cc2)coc2cc(O)cc(O)c12 :: Not Active
NC(=O)c1cccc(N)c1 [3-AMINOBENZAMIDE] :: Not Active

Challenge: Give the reported IC50 for `Nc1cc(-c2ccncc2)c[nH]c1=O` (system: Mitogen-activated protein kinase 3 (Homo sapiens)).
Response given: Not Active

Challenge: Give the reported IC50 for CCC1=C(C)CN(C(=O)NCCc2ccc(S(=O)(=O)NC(=O)N[C@H]3CC[C@H](C)CC3)cc2)C1=O [GLIMEPIRIDE] (system: Mitogen-activated protein kinase 3 (Homo sapiens)).
Response given: Not Active

Challenge: Give the reported IC50 for `CC(C)NC[C@H](O)COc1cccc2ccccc12` (system: Mitogen-activated protein kinase 3 (Homo sapiens)).
Response given: Not Active

Challenge: Give the reported IC50 for `Cc1cc(O)cc(C)c1Cl` (system: Mitogen-activated protein kinase 3 (Homo sapiens)).
Response given: Not Active

Challenge: Give the reported IC50 for `O=C(O)c1ccccc1O` (system: Mitogen-activated protein kinase 3 (Homo sapiens)).
Response given: Not Active

---

- assay: DRUGMATRIX: Imidazoline I2, Central radioligand binding (ligand: [3H] Idazoxan)
- Format: cell membranes, Rattus norvegicus, Wistar, Cerebral cortex, Membrane
- measurement.context: Not Active = under 50% inhibition at 10 µM; read-out: Ki
Below: a set of entries, each annotated with reported log10 Ki.
Give log10 of Ki, with Ki taken in nM.

Some entries whose results are on file:
N=C(N)c1ccc(OCCCCCOc2ccc(C(=N)N)cc2)cc1 [PENTAMIDINE] :: 3.37
CC1CCC(NC(=O)N(CCCl)N=O)CC1 (stereo unspecified) [SEMUSTINE] :: 3.03
CN1CCN(C(c2ccccc2)c2ccccc2)CC1 [CYCLIZINE] :: 3.32
CC(C)C[C@H]1C(=O)N2CCC[C@H]2[C@]2(O)O[C@](NC(=O)[C@@H]3C=C4c5cccc6[nH]cc(c56)C[C@H]4N(C)C3)(C(C)C)C(=O)N12 [ERGOCRYPTINE] :: 0.34
CCN(CC)CCCC(C)Nc1c2ccc(Cl)cc2nc2ccc(OC)cc12 (stereo unspecified) [QUINACRINE] :: 3.00

Challenge: Would you kindly share the measured log10 Ki for CN(C)CCC=C1c2ccccc2CCc2ccccc21 [AMITRIPTYLINE] ?
Response given: 3.05
